# Emax listing for each entry below
# system_under_test: UniProtKB Q14833
# Sequence (Q14833 33-912): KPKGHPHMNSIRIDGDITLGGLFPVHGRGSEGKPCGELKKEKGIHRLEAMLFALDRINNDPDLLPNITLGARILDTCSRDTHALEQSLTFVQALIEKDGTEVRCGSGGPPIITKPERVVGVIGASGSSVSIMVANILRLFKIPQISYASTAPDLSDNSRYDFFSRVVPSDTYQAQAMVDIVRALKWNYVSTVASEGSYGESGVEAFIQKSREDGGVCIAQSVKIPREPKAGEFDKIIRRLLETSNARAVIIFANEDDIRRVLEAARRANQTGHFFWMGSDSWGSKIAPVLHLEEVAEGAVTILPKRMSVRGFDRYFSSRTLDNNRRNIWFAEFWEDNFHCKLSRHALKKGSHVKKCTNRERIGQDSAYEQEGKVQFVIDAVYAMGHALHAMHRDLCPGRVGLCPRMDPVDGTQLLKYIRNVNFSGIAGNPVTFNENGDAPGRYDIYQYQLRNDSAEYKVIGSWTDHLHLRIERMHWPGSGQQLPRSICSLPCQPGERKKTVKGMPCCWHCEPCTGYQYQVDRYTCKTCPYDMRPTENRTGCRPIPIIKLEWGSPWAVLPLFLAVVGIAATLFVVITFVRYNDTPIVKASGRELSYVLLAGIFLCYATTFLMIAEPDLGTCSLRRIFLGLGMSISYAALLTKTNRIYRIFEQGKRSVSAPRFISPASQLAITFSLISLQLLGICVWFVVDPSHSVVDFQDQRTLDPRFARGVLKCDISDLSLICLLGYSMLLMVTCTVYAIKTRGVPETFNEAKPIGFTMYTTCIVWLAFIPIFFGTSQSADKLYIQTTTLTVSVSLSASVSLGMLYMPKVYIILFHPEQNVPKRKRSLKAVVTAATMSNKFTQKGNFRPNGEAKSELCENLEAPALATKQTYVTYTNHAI
# assay_comment: Fluorescent Imaging Plate Reader (FLIPR) assay for mGluR4 potentiators
# Assay type: cell-based
# Parameters: expressed in transfected cells
# experimental_setup: maximal activity relative to response with saturating concentration (10 uM) of agonist L-AP4; read-out: mGluR4 FLIPR % Max Efficacy
measured_metric: Emax (%)

[[record]]
structure = "O=C(Nc1ccc(S(=O)(=O)Nc2ccccc2Cc2ccccc2)cc1)c1ccccn1"
measured_metric = "Emax"
result = 124

[[record]]
structure = "O=C(Nc1ccc(S(=O)(=O)Nc2ccccc2Cl)cc1)c1ccccn1"
measured_metric = "Emax"
result = 111

[[record]]
structure = "Cc1ccc(NS(=O)(=O)c2ccc(NC(=O)c3ccccn3)cc2)cc1"
measured_metric = "Emax"
result = 93

[[record]]
structure = "O=C(Nc1ccc(S(=O)(=O)Nc2ccccc2Br)cc1)c1ccccn1"
measured_metric = "Emax"
result = 110

[[record]]
structure = "COc1cc(NC(=O)c2ccccn2)ccc1S(=O)(=O)Nc1ccccc1"
measured_metric = "Emax"
result = 70


// data source = patent US20110243844A1
